test: in vivo; conditions: CD-1, mouse, po, 10 mg/kg
readout_kind: bioavailability (%)

a = CCCOc1ccc(NC(=O)C(C)(C)c2csc(NS(=O)(=O)C3CC3)n2)cc1
b = CC(C)(C(=O)Nc1ccc(-c2cncc(C(F)(F)F)n2)cc1F)c1csc(NS(=O)(=O)C2CC2)n1
Which record would sort first by descending bioavailability, a or b ? Indicate which entry you chose by stating its label.
b
(b: 95%, a: 35%)

###

assay: in vivo; conditions: CD-1, mouse, po, 10 mg/kg
readout_kind: Cmax (µM)

P = CC(C)(C(=O)Nc1ccc(-c2cncc(C(F)(F)F)n2)cn1)c1csc(NS(=O)(=O)C2CC2)n1
Q = CC(C)(C(=O)Nc1ccc(-c2cncc(C(F)(F)F)n2)cc1F)c1csc(NS(=O)(=O)C2CC2)n1
R = CCCOc1ccc(NC(=O)C(C)(C)c2csc(NS(=O)(=O)C3CC3)n2)cc1
Order these by Cmax, descending, and give the full ranking. When ranking, write the labels in the order the request describes.
Q, P, R
(Q: 11.1 µM, P: 5.3 µM, R: 0.9 µM)

###

assay: Cmax in collagen-induced arthritis mouse at 10 mg/kg, po measured at day 19; format: ADME, organism-based; set-up: dose 10 mg/kg, time 19 day, route po; details: in vivo
readout_kind: Cmax (ng/mL)
Respond with the bare value in ng/mL.

Noted for CC(C)(C(=O)Nc1ccc(-c2cncc(C(F)(F)F)n2)cn1)c1csc(NS(=O)(=O)C2CC2)n1 : its Cmax reads 3570

###

experiment: in vitro; conditions: mouse, hepatocytes
readout_kind: hepatocyte CLint at 1 h, 1 µM (µL/min/1e6 cells)

a = CCCOc1ccc(NC(=O)C(C)(C)c2csc(NS(=O)(=O)C3CC3)n2)cc1
b = CC(C)(C(=O)Nc1ccc(-c2cncc(C(F)(F)F)n2)cn1)c1csc(NS(=O)(=O)C2CC2)n1
Between a and b , whose recorded hepatocyte CLint at 1 h, 1 µM is greater? Bench note: the answer is the label of the chosen record.
a
(a: 32 µL/min/1e6 cells, b: 8 µL/min/1e6 cells)

###

assay: AUC(0 to t) in collagen-induced arthritis mouse at 10 mg/kg, po measured at day 2; type: ADME, organism-based; design: time 2 day, dose 10 mg/kg, route po; settings: in vivo
readout_kind: AUC(0-t) at 48 h (ng·h/mL)
The answer is to be given in ng·h/mL; state only the numeric part.

Lab book: AUC(0-t) at 48 h of CC(C)(C(=O)Nc1ccc(-c2cncc(C(F)(F)F)n2)cn1)c1csc(NS(=O)(=O)C2CC2)n1 noted as 15000

###

Attribute: pKa
assay: physchem
Give the figure only, with no unit attached.

Lookup result for CC(C)(C(=O)Nc1ccc(-c2cncc(C(F)(F)F)n2)cn1)c1csc(NS(=O)(=O)C2CC2)n1 ; measured pKa: 6.26

Lab note: measured pKa of CS(=O)(=O)Nc1nc(CC(=O)Nc2cccc(Cl)c2)cs1 was 6.58

###

test: Cmax in collagen-induced arthritis mouse at 50 mg/kg, po measured at day 19; format: ADME, organism-based; set-up: dose 50 mg/kg, time 19 day, route po; conditions: in vivo
readout_kind: Cmax (ng/mL)
Reply numerically in ng/mL, unit not repeated.

Summary for this compound, CC(C)(C(=O)Nc1ccc(-c2cncc(C(F)(F)F)n2)cn1)c1csc(NS(=O)(=O)C2CC2)n1 : Cmax is 13000
